Please go through the items and note down their Kd.
target: T1, full length recombinant human 2N4R tau (human, UniProt P10636 1-758); test: SPR SCK, IgG on Protein A, tau in flow
T1 construct: bought from rPeptide; pHrodo Red maleimide-labelled where it stands in uptake assays; also called tau1-441; full length tau
T1 sequence (P10636 other isoform, or with tags, fused parts or gaps limits assumed): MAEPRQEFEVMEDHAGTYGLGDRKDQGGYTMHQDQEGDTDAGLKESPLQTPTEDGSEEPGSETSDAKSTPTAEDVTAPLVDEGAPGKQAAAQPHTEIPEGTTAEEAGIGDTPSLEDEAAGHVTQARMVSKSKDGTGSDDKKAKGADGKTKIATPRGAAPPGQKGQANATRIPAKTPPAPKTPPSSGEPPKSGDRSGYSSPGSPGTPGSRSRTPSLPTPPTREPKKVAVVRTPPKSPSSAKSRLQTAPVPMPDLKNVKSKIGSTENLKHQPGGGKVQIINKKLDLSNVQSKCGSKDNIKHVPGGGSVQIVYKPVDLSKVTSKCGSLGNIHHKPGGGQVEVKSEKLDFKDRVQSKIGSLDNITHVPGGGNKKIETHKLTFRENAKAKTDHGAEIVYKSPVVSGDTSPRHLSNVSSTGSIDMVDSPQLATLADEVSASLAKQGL
Answers are plain numbers, in nM.

Reference set (2 entries):
1) #44_VH4VK4_H20/pVL (antibody, V domains shown, also called Clone VH4_H20; #44_VH4_H20) VH: QVQLQESGPGLVKPSETLSLTCTVSGIDLSSYAMAWVRQAPGKGLEWIGAIDSRGSTFYASWVKGRFTISKDTSKTTVDLQMTSLTAEDTATYFCARDSGAFDPWGQGTLVTVSS VL: DIQMTQSPSSLSASVGDRVTITCQASQSVYDNYLAWYQQKPGQPPKLLIHAASNLASGVPSRFSGSGSGTEFTLTISSLQPDDFATYYCLGEFSCTTTDCNVFGGGTKVEIK: 8.78
2) #44_VH4VK4_H04/pVL (antibody, V domains shown, also called VH04/pVL; Clone VH4_H04) VH: QVQLQESGPGLVKPSETLSLTCTVSGIDLSSYAMAWVRQAPGKGLEWIGCIDRRGGTFYASWVKGRFTISKDTSKTTVDLQMTSLTAEDTATYFCARDAGSFHPWGQGTLVTVSS VL: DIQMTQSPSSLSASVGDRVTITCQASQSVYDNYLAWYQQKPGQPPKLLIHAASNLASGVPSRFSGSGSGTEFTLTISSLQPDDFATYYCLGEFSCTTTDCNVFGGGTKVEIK: 0.593

Continue with the next binder.
Exam item: Tell me the measured Kd of #44_VH4VK4_H18/pVL (antibody, V domains shown, also called Clone VH4_H18; #44_VH4_H18) VH: QVQLQESGPGLVKPSETLSLTCTVSGIDLSSYAMAWVRQAPGKGLEWIGAIDAGGNTFYASWVKGRFTISKDTSKTTVDLQMTSLTAEDTATYFCARDSGAFDPWGQGTLVTVSS VL: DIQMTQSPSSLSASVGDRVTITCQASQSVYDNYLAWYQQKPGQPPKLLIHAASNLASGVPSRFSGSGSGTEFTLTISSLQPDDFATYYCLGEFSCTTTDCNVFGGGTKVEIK , please.
Marked response: 34.2
